# assay_explanation: NCI Yeast Anticancer Drug Screen. Data for the bub3 strain (AID 167)
# condition_context: S. cerevisiae bub3 mutant strain, at 50.0 µM (retest, dose inferred, filed as 5.0), hits give high values
# Procedure: Growth inhibition of yeast strains with defined genetic alterations is measured as a screen for potential anti-cancer activity. Selected strains with alterations in DNA damage repair or cell cycle control were exposed to compounds and growth inhibition was measured relative to vehicle treated controls. The strain used in this assay is bub3
The panel holds about 79,000 compounds, 15% with a hit somewhere; the sample as a whole holds those more often.
Each item that follows carries a reported growth inhibition.
// units = %; emit number, no label

Record excerpt, results attached:
| smiles_notation | unit_info | readout_value |
| --- | --- | --- |
| ClC/C=C/c1ccccc1 | % | 20 |
| Cc1c(Cl)c(S(N)(=O)=O)cc2c1NC=NS2(=O)=O | % | -3 |
| CN(C)C(N)=NC#N | % | 95 |

Given `C[C@H](CCC1=NCCN1)[C@H]1CC[C@H]2[C@@H]3CC[C@@H]4C[C@H](O)CC[C@]4(C)[C@H]3C[C@H](O)[C@]12C` , respond with its growth inhibition. 99

Given `O=C(c1ccccc1)N(C1CCCCC1)C1CCCCC1` , respond with its growth inhibition. 93

Given `Nc1cccc2c1C(=O)c1cccc(Cl)c1C2=O` , respond with its growth inhibition. 21

====

# assay_explanation: NCI Yeast Anticancer Drug Screen. Data for the cln2 rad14 strain (AID 165);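 also: 0% = growth equal to vehicle treated cultures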
# condition_context: S. cerevisiae cln2 rad14 strain, at 50.0 µM
Compounds without any hit were thinned out: in the full panel of roughly 79,000, 15% have a hit. Calls of active or inactive are those of the source. Rule as the data show it: active = growth inhibition above about 70%; inactive = the rest.
Hi there, use one of these labels in your reply, thanks! active, inactive

| compound | label_value |
| --- | --- |
| CCSc1nc2ccc(N3C(=O)C=CC3=O)cc2s1 | active |
| O=c1cccccc1[O-].O=c1cccccc1[O-].O=c1cccccc1[O-].[Ce+3] | active |

Recorded test call requested for C#CC(O)c1ccc(Cl)cc1Cl (centres undefined) active

Recorded test call requested for `Clc1cccc(Cl)c1C(Nc1nncs1)Nc1nncs1` active

Recorded test call requested for `O=C(c1cccnc1)N(C1CCCCC1)C1CCCCC1` inactive

====

# assay_explanation: NCI Yeast Anticancer Drug Screen. Data for the mlh1 rad18 strain (AID 175)
# condition_context: S. cerevisiae mlh1 rad18 strain growth inhibition; at 50.0 µM; hits give high values
This is part of a sample that, as a whole, favours compounds with a hit. Of some 79,000 tested, about 15% had one in any assay.
readout_kind: growth inhibition (%)
// units = %; emit number, no label

Record excerpt, results attached:
| compound | unit_info | growth inhibition |
| --- | --- | --- |
| O=C(Nn1cc(F)c(=O)[nH]c1=O)C12CC3CC(CC(C3)C1)C2 | % | 57.9 |
| FC(F)(F)c1[nH]nc(-c2cccs2)c1N=NN1CCOCC1 | % | 98 |
| NC(=S)NNC(=O)c1cccnc1 | % | 50.8 |
| CC1OC(c2ccc3c(c2)OCO3)OC1C (configuration not stated) | % | 64.7 |
| O=C1OC2(CCN(Cc3ccccc3)CC2)C(=O)N1c1cccc(Cl)c1 | % | 62.5 |

Given `CCC(CC)=NNc1ccc([N+](=O)[O-])cc1` , respond with its growth inhibition. 97.2

Given `COc1cc(NCCCCCNC(C)C)c2ncc(C)c(C)c2c1` , respond with its growth inhibition. 55.4

Given `Brc1ccc(N=Nc2ccc(-c3ccc[cH-]3)cc2)cc1.[Fe+2].c1cc[cH-]c1` , respond with its growth inhibition. 14.7

Given `Cc1cc(S(=O)(=O)c2ccc(Cl)cc2)nc(S(=O)(=O)c2ccc(Cl)cc2)c1C#N` , respond with its growth inhibition. 80.2

Given Cc1cccc2c1Oc1ccccc1C2N1C(=O)/C(=C/c2cccs2)SC1=S (configuration not stated) , respond with its growth inhibition. 42.4

Given O=[N+]([O-])c1ncn(C2OC(CO)C(O)C2O)c1S (configuration not stated) , respond with its growth inhibition. 8.05

Given `O=C1/C(=N/N=C(c2ccccc2)c2ccccc2)c2ccccc2-c2ccccc21` , respond with its growth inhibition. 72.3

Given `COc1ccc(OP2(Oc3ccc(OC)cc3)=NP(Oc3ccc(OC)cc3)(Oc3ccc(OC)cc3)=NP(Oc3ccc(OC)cc3)(Oc3ccc(OC)cc3)=NP(Oc3ccc(OC)cc3)(Oc3ccc(OC)cc3)=N2)cc1` , respond with its growth inhibition. 78.8

Given `CN(C)c1ccc(-c2c(C#N)c(S)n(NS(=O)(=O)c3ccccc3)c(=O)c2C#N)cc1` , respond with its growth inhibition. 60.7

Given CC(C(=O)c1ccc2cc(Br)c3ccccc3c2c1)N(C)C (configuration not stated) , respond with its growth inhibition. 99.3

Given `CCCSc1ncnc2nc(C)[nH]c12` , respond with its growth inhibition. -8.25

Given `COC(=O)c1ccc(CCc2cc(O)ccc2O)cc1` , respond with its growth inhibition. 98.8

Given `O=C1CN(/N=C\c2ccc([N+](=O)[O-])o2)C(=O)N1` , respond with its growth inhibition. 69.8

Given `O=C1/C(=C/c2cccc(O)c2)COc2ccccc21` , respond with its growth inhibition. 96.8

Given O=C(CC(O)(C(F)(F)F)C(F)(F)F)C(c1ccccc1)C(O)(C(F)(F)F)C(F)(F)F (configuration not stated) , respond with its growth inhibition. 93.6

Given `CCN(CC)CCC(=O)/C=C/c1ccc(Cl)c(Cl)c1` , respond with its growth inhibition. 89.3

Given `O=C(NCCN1CCCC1)c1cn2c(ccc3sc4ccccc4c(=O)c32)n1` , respond with its growth inhibition. 20.4

====

# assay_explanation: NCI Yeast Anticancer Drug Screen. Data for the bub3 strain (AID 167)
# condition_context: S. cerevisiae bub3 mutant strain, at 50.0 µM
About 79,000 compounds went through this panel and 15% of them were active in at least one assay; those are over-represented in the sample as a whole. The source made the active and inactive calls. Rule as the data show it: active = growth inhibition above about 70%; inactive = the rest.
Hi there, use one of these labels in your reply, thanks! active, inactive

| compound | label_value |
| --- | --- |
| O=C(n1c2ccccc2c2n[nH]c(=S)nc21)C(F)(F)F | inactive |
| COc1ccc(C23OCCN2C(=O)c2ccccc23)cc1 (stereo not given) | active |
| CCCCC(CC)CN1C(=O)C2C3C=CC(C3)C2C1=O (stereo not given) | inactive |
| Nc1c(-c2ccc(Cl)cc2)[n+]([O-])c2ccccc2[n+]1[O-] | inactive |
| Cc1ccc(S(=O)(=O)OC2C(C)OCOC(C)C2OS(=O)(=O)c2ccc(C)cc2)cc1 (stereo not given) | active |

Recorded test call requested for `COc1cc(C(c2ccccc2)c2ccccc2)c2ccccc2c1O` inactive

Recorded test call requested for `O=c1c2ccccc2sc2c(CO)ccc(NCCN3CCCCC3)c12` inactive

Recorded test call requested for `CN(C)c1ccc(N=Nc2ccc3c4c(cccc24)-c2ccccc2-3)cc1` active

Recorded test call requested for `CCC[CH2][Sn]([S][Sn]([CH2]CCC)([c]1ccccc1)[c]1ccccc1)([c]1ccccc1)[c]1ccccc1` active

Recorded test call requested for `CC(=O)N/N=C/c1ccc([N+](=O)[O-])o1` inactive

Recorded test call requested for O=[N+]([O-])C1=Cc2cc(Cl)ccc2OC1c1cccc2ccccc12 (stereo not given) active

Recorded test call requested for `Brc1ccc(N=Nc2ccc(-c3ccc[cH-]3)cc2)cc1.[Fe+2].c1cc[cH-]c1` inactive

Recorded test call requested for CC(C)(C)C(=O)OC(N)/C=C/c1ccccc1 (stereo not given) active

Recorded test call requested for `O=C1C=CC(=O)c2c1cc1ccccc1c2O` inactive

Recorded test call requested for `Cc1cc(C)nc(NS(=O)(=O)c2ccc(Nc3nc(-c4cccc([N+](=O)[O-])c4)cs3)cc2)n1` active

Recorded test call requested for `O=C1c2ccccc2C(=O)c2c(Nc3cc4c5c(ccc6c7ccc8c9c(cc(Nc%10cccc%11c%10C(=O)c%10ccccc%10C%11=O)c(c3c56)c97)-c3ccccc3C8=O)C(=O)c3ccccc3-4)cccc21` inactive

Recorded test call requested for `CCc1cccc(C)c1NC(=O)C1=C(C)NC(C)=C(C(=O)Nc2c(C)cccc2CC)C1c1ccc2c(c1)OCO2` active

Recorded test call requested for CCCCCCCCCCCCCCCCCCOS(=O)(=O)O (tested in a mixture with another compound) inactive

Recorded test call requested for `CCCN(CCC)C(=S)N/N=C/c1cccc(C)n1` active

Recorded test call requested for CCCCN(C(=O)c1ccccc1)C1CCC(=O)c2[nH]c3ccccc3c21 (stereo not given) active

====

# assay_explanation: NCI Yeast Anticancer Drug Screen. Data for the mec2-1 strain (AID 157)
# condition_context: S. cerevisiae mec2-1 strain, at 50.0 µM, hits give high values
# Protocol: Growth inhibition of yeast strains with defined genetic alterations is measured as a screen for potential anti-cancer activity. Selected strains with alterations in DNA damage repair or cell cycle control were exposed to compounds and growth inhibition was measured relative to vehicle treated controls. The strain used in this assay is mec2-1
This is part of a sample that, as a whole, favours compounds with a hit. Of some 79,000 tested, about 15% had one in any assay.
Each item that follows carries a reported growth inhibition.
// units = %; emit number, no label

Record excerpt, results attached:
| molecule | growth inhibition / % |
| --- | --- |
| Clc1cccc(Cl)c1C(Nc1nncs1)Nc1nncs1 | 79.8 |
| C/C(=N\OS(=O)(=O)O)SC1OC(CO)C(O)C(O)C1O (centres undefined) | -4.8 |
| N#CC(C(=O)C(=O)Nc1cccc(C(F)(F)F)c1)c1ccccc1 (centres undefined) | 10.2 |
| CC[n+]1cnc(N)c2c(-c3ccc(Cl)cc3)cn(-c3ccc(C)cc3)c21 | 95.5 |
| CC(C)CCCC(C)C1CCC2C3C=CC4=CCCCC4(C)C3CCC12C (centres undefined) | 94.8 |
| COc1ccc(/C=C2/C(=O)ON=C2C)cc1OC | 85.5 |
| CCOC(=O)c1[nH]c2c([N+](=O)[O-])cccc2c1[N+](=O)[O-] | 98 |
| Cc1cc(NC(=S)SCc2ccc(Cl)cc2)ccc1Br | 92.7 |
| CC(C)(C)c1ccc(Br)c(CCC(=O)NO)c1 | 98.6 |
| O=C(CC(O)(c1ccccc1)c1ccc(Cl)cc1)NC(=O)c1ccccc1O (centres undefined) | 89 |

Attention now shifts to the item below.
Given `CN1C/C(=C\c2ccccc2)C(=O)/C(=C/c2ccccc2)C1` , respond with its growth inhibition. 10.2
